Measured values drawn from patent US6433021B1 for this set.

System: arachidonic acid-induced ear oedema
PROTOCOL_SUMMARY: Mouse ear oedema model (arachidonic acid-induced acute inflammation)
Type: in vivo, Laca mice
REPORTED_CONDITIONS: 300 μg per ear topical in acetone, 30 min before arachidonic acid; 1 hour after arachidonic acid; second set, solvent control 79.6
# key: entry, value: Mean % (percentage increase in ear thickness)
Report the figure in % without appending any unit label.

COMPOUND: O=C1c2ccccc2CC1(CC(O)c1ccccc1)C1=Cc2ccccc2C1 (stereo not shown) [Compound IV]
UNIT_ANNOTATION: %
NUMERIC_VALUE: 13.1

Value lookup for Mean % (percentage increase in ear thickness); key = O=C(CC1(C2=Cc3ccccc3C2)Cc2ccccc2C1O)c1ccccc1 (stereo not shown) [Compound III]
37.3

Value lookup for Mean % (percentage increase in ear thickness); key = OC(CC1(C2=Cc3ccccc3C2)Cc2ccccc2C1O)c1ccccc1 (stereo not shown) [Compound II]
17.7

Value lookup for Mean % (percentage increase in ear thickness); key = C[C@@H]1C[C@H]2[C@@H]3CCC4=CC(=O)C=C[C@]4(C)[C@@]3(F)[C@@H](O)C[C@]2(C)[C@@]1(O)C(=O)CO [Dexamethasone, reference compound]
54.0
